The reported measurements were obtained from patent US20210388087A1.

measured_on: T1, Human CD3eg linker (human)
T1 construct: Single-chain construct; also called recombinant human CD3
T1 chain: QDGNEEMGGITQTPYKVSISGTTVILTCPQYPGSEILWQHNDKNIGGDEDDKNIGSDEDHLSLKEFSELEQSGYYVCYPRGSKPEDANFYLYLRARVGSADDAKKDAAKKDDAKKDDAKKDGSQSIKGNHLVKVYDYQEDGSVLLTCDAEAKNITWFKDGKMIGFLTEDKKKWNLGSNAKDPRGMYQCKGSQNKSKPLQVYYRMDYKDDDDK
protocol_summary: SPR; fold vs parent H183/L072
Each record here notes measured fold change of affinity.
observable: fold change of affinity (fold)

H183/L072 VL S52T (antibody, name in Kabat numbering, V domains shown) VH: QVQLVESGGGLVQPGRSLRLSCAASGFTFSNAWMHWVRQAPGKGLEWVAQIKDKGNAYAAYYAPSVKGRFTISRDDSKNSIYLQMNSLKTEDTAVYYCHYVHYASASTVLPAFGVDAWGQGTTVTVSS VL: DIVMTQSPLSLPVTPGEPASISCQASQELVHMNRNTYLHWYQQKPGQAPRLLIYKVTNRFPGVPDRFSGSGSGTDFTLKISRVEAEDVGVYYCAQGTSVPFTFGQGTKLEIK	1.3
H183/L072 VL K50T (antibody, name in Kabat numbering, V domains shown) VH: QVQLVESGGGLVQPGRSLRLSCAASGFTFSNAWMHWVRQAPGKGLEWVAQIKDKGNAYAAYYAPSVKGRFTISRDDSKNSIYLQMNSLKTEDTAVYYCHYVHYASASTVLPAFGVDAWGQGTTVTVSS VL: DIVMTQSPLSLPVTPGEPASISCQASQELVHMNRNTYLHWYQQKPGQAPRLLIYTVSNRFPGVPDRFSGSGSGTDFTLKISRVEAEDVGVYYCAQGTSVPFTFGQGTKLEIK	0
H183/L072 VL F55V (antibody, name in Kabat numbering, V domains shown) VH: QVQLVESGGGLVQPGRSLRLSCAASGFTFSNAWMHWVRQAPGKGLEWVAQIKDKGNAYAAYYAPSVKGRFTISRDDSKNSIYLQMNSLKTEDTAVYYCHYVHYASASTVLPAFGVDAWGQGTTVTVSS VL: DIVMTQSPLSLPVTPGEPASISCQASQELVHMNRNTYLHWYQQKPGQAPRLLIYKVSNRVPGVPDRFSGSGSGTDFTLKISRVEAEDVGVYYCAQGTSVPFTFGQGTKLEIK	4.4
